Recorded values, source the supplement of paper PMC6965134.

experiment: TIMS collisional cross section (CCS, N2) of the lipid ion; higher = larger ion cross section; conditions: sample type: HeLa; ionization mode: positive; one isomer drawn
Quick reference for TIMS collisional cross section among some molecules
Note: unit Å² is implicit; provide only the numeric part.

molecule: CCCCCCCCCCCCCCCC(=O)O[C@H](COC(=O)CCCCCCCCCCCCC)COP(=O)([O-])OCC[N+](C)(C)C [PC 14:0@_16:0] (ion (formula + adduct): [C38H76NO8P+H] 1+)
TIMS collisional cross section (Å²): 279.2

molecule: CCCCCCCC/C=C\CCCCCCCC(=O)O[C@H](COC(=O)CCCCCCCCCCCCCCC)COP(=O)(O)OCCN [PE 16:0_18:1] (ion (formula + adduct): [C39H76NO8P+H] 1+)
TIMS collisional cross section (Å²): 275.3

molecule: CC/C=C\C/C=C\C/C=C\C/C=C\C/C=C\C/C=C\CCC(=O)O[C@H](COC(=O)CCCCCCCCCCCCCCC)COP(=O)(O)OCCN [PE 16:0_22:6] (ion (formula + adduct): [C43H74NO8P+H] 1+)
TIMS collisional cross section (Å²): 278.6

molecule: CCCCC/C=C\C/C=C\C/C=C\C/C=C\CCCC(=O)O[C@H](COC(=O)CCCC/C=C\C/C=C\C/C=C\CCCCC)COP(=O)(O)OCCN [PE 18:3_20:4@] (ion (formula + adduct): [C43H72NO8P+H] 1+)
TIMS collisional cross section (Å²): 273.8

molecule: CCCCCCCCCCCCCCCCCC(=O)OC[C@@H](O)COP(=O)(O)OC[C@H](N)C(=O)O [LPS 18:0] (ion (formula + adduct): [C24H48NO9P+H] 1+)
TIMS collisional cross section (Å²): 229.2

Sure, the documented TIMS collisional cross section for CC/C=C\C/C=C\C/C=C\C/C=C\C/C=C\CCCCCC(=O)OC[C@@H](COC(=O)CCCCCCC/C=C\CCCCCCCC)OC(=O)CCC/C=C\C/C=C\C/C=C\C/C=C\CCCCC [TG 18:1_20:4_22:5] (ion (formula + adduct): [C63H102O6+NH4] 1+) is 333.4

Summary for this molecule, CCCCCCCC/C=C\CCCCCCCCCC(=O)OC[C@@H](COC(=O)CCCCCCCCCCCCCCCCC)OC(=O)CCCCCCC/C=C\CCCCCCCC [TG 18:0_18:1_20:1] (ion (formula + adduct): [C59H110O6+NH4] 1+) : TIMS collisional cross section is 333.7

response.value for CCCCCCCCCCCCCCCCCCCCCC(=O)OC[C@@H](COC(=O)CCCCCCCCCCCCCCC)OC(=O)CCCCCCCCCCCCCCCCCCC [TG 16:0_20:0_22:0] (ion (formula + adduct): [C61H118O6+NH4] 1+) (field: TIMS collisional cross section) = 344.3

Reported TIMS collisional cross section of CCCCCCCC/C=C\CCCCCCCC(=O)OC[C@H](COP(=O)(O)OCCN)OC(=O)CCCCCCCCC/C=C\CCCCCCCCCC [PE 18:1_22:1] (ion (formula + adduct): [C45H86NO8P+H] 1+) : 292.4

---

assay: TIMS collisional cross section (CCS, N2) of the lipid ion; higher = larger ion cross section; conditions: sample type: Liver; ionization mode: positive; one isomer drawn
# TIMS collisional cross section listing for each entry below
State just the number; it will be interpreted in Å².

compound: CCCCCCCCCCCCCCCCCC(=O)O[C@H](CO)COP(=O)(O)OCCN [LPE 18:0] (ion (formula + adduct): [C23H48NO7P+H] 1+)
recorded.result: 222

compound: CC/C=C\C/C=C\C/C=C\C/C=C\C/C=C\CCCCCC(=O)OC[C@@H](COC(=O)CCCCCCC/C=C\CCCCCCCC)OC(=O)CCCCCCCCC/C=C\CCCCCCCC [TG 18:1_20:1_22:5] (ion (formula + adduct): [C63H108O6+NH4] 1+)
recorded.result: 337.9

compound: CC/C=C\C/C=C\C/C=C\C/C=C\C/C=C\CCCCCC(=O)O[C@H](COC(=O)CCCCCCCCC/C=C\CCCCCC)COP(=O)([O-])OCC[N+](C)(C)C [PC 18:1@_22:5] (ion (formula + adduct): [C48H84NO8P+H] 1+)
recorded.result: 297

compound: CC/C=C\C/C=C\C/C=C\CCCCCCCC(=O)O[C@@H](CO)COC(=O)CCCCCCC/C=C\C/C=C\CCCCC [DG 18:2_18:3_0:0] (ion (formula + adduct): [C39H66O5+NH4] 1+)
recorded.result: 254.2

Turning to the following compound.
Lab note: measured TIMS collisional cross section of CCCCCCCCCCCCCCCCCC(=O)O[C@H](COC(=O)CCCCCCCCCCCCCCC)COP(=O)([O-])OCC[N+](C)(C)C [PC 16:0_18:0] (ion (formula + adduct): [C42H84NO8P+H] 1+) was 291.4
